- TESTED SYSTEM: ACE (Oryctolagus cuniculus, UniProt P12822)
- Sequence (P12822 34-1310): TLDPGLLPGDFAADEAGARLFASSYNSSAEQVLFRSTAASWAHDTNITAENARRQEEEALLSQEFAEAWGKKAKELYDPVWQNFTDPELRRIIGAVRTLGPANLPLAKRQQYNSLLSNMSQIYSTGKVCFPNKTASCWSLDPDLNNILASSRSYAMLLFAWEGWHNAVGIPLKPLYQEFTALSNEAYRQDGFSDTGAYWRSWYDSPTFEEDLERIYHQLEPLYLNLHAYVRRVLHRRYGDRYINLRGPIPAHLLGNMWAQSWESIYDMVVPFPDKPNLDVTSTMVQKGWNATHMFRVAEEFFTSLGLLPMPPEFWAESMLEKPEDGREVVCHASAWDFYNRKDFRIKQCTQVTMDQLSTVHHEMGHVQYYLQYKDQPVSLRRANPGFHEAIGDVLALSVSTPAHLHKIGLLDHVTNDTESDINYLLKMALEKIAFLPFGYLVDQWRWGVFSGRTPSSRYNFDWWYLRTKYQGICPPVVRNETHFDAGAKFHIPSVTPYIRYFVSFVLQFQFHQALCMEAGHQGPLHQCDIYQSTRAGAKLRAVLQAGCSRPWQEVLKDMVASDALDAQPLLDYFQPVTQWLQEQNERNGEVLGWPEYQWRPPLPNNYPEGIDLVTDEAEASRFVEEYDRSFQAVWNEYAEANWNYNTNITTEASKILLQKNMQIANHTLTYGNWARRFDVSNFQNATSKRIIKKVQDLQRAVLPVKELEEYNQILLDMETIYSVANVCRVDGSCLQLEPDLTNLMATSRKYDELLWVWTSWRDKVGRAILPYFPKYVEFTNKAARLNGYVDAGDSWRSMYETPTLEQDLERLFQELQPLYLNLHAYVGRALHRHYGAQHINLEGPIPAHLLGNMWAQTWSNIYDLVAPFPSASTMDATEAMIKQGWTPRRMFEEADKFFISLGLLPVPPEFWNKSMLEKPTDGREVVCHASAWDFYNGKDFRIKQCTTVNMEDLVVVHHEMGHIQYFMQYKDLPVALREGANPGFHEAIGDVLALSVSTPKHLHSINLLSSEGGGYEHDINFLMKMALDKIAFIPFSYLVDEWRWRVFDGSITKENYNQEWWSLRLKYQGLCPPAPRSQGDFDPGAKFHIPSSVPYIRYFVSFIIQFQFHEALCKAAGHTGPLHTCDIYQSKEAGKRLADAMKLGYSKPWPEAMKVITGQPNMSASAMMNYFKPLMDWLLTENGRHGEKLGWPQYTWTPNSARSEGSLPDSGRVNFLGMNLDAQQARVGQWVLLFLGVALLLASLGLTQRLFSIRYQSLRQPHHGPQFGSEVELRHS
- PROCEDURE DETAILS: ACE inhibitory activity assay with FAPGG as substrate
Reported log10(IC50) values for a set of compounds
EXPERIMENTAL ENDPOINT: log10(IC50) (log10 of the value in µM)

COMPOUND: CC(C)=CC(=O)O[C@H]1[C@H](O)c2cc3ccc(=O)oc3cc2OC1(C)C
VALUE OBSERVED: 0.83
--
COMPOUND: C/C=C(/C)C(=O)O[C@H]1[C@H](OC(C)=O)c2cc3ccc(=O)oc3cc2OC1(C)C
VALUE OBSERVED: 1.18
--
COMPOUND: CC(C)(OC1OC(CO)C(O)C(O)C1O)C1Cc2cc3ccc(=O)oc3c(O)c2O1 (stereo not shown)
VALUE OBSERVED: 1.84
--
COMPOUND: O=C(O)c1ccc(O)cc1 [Compound 6, para-hydroxy benzoic acid]
VALUE OBSERVED: 2.69
--
COMPOUND: C/C=C(\C)C(=O)O[C@@H]1c2c(ccc3ccc(=O)oc23)OC(C)(C)[C@@H]1OC(C)=O
VALUE OBSERVED: 1.95
--
COMPOUND: CC(C)c1cc2cc3ccc(=O)oc3cc2o1
VALUE OBSERVED: 2.49
--
COMPOUND: C/C=C(/C)C(=O)O[C@@H]1c2c(ccc3ccc(=O)oc23)OC(C)(C)[C@@H]1OC(C)=O [Compound 10, cis-3′-acetyl-4′-angeloylkhellactone]
VALUE OBSERVED: 1.85

###

- TESTED SYSTEM: ACE (Oryctolagus cuniculus, UniProt P12822)
- Sequence (P12822 34-1310): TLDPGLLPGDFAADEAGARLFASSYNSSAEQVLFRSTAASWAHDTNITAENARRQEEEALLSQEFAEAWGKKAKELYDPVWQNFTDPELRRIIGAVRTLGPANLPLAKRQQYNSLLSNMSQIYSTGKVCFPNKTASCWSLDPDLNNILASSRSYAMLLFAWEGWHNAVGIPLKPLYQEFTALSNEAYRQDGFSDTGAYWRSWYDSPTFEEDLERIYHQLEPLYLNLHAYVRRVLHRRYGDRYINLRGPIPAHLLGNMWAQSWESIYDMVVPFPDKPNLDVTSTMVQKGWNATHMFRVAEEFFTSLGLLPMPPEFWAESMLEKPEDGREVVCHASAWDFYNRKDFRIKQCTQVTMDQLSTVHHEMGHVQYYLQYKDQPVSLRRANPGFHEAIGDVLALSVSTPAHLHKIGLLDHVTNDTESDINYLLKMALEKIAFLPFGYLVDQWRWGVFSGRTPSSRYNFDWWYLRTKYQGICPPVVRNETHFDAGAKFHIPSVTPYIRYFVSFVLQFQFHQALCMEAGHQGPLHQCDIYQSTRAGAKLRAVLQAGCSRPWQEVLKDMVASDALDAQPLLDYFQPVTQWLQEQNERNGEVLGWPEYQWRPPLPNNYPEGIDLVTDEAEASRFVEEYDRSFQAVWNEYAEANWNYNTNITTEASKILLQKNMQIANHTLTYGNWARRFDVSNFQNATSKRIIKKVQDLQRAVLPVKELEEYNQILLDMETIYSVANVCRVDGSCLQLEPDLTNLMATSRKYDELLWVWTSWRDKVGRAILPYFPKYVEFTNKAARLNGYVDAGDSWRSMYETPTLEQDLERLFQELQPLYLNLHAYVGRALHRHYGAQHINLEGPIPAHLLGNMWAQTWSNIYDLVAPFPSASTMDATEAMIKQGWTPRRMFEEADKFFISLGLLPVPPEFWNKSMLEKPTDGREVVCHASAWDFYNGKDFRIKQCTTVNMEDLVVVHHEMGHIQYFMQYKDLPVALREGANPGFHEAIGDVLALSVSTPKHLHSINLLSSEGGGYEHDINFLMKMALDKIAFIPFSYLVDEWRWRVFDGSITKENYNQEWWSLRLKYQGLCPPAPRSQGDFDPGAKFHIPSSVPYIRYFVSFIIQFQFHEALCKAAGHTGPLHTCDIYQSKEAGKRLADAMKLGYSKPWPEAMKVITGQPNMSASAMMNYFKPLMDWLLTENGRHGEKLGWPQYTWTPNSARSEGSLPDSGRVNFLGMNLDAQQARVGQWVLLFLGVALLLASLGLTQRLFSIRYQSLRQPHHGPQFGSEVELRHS
Reported IC50 values for a set of compounds
EXPERIMENTAL ENDPOINT: IC50 (µM)

COMPOUND: CC1(C)Oc2cc3oc(=O)ccc3cc2[C@@H](O)[C@@H]1O [Compound 15, (+)-trans-decursidinol]
TESTED SYSTEM: ACE (Oryctolagus cuniculus, UniProt P12822)
UNIT OF MEASUREMENT: µM
VALUE OBSERVED: 4.68
--
COMPOUND: C/C=C(/C)C(=O)O[C@H]1[C@H](O)c2cc3ccc(=O)oc3cc2OC1(C)C [Compound 12, 4′-hydroxy Pd-C-III]
TESTED SYSTEM: ACE (Oryctolagus cuniculus, UniProt P12822)
UNIT OF MEASUREMENT: µM
VALUE OBSERVED: 9.41
--
COMPOUND: O=C(O)c1cc2ccc(=O)oc2cc1O [Compound 5, umbelliferone 6-carboxylic acid]
TESTED SYSTEM: ACE (Oryctolagus cuniculus, UniProt P12822)
UNIT OF MEASUREMENT: µM
VALUE OBSERVED: 156

Origin of measurements: paper PMC6864762
